# Tested on: [^3 H]TdR incorporation into DNA in HL-60 cells
# Protocol: Inhibition of [3H]TdR incorporation into DNA in HL-60 cells (initial 30 min)
# Type: cell-based, human
# Stated Conditions: Homo sapiens, 0.5 h; HL-60, initial 30 min exposure; read-out: ID50, M (HL-60 TdR into DNA (B))
Measured Endpoint: IC50 (µM)
Report the figure in µM without appending any unit label.

COc1cc(O)c2c(c1)C(=O)c1cc(CNCCCl)cc(O)c1C2=O has a reported IC50 of 220

COc1cc(OC)c2c(c1)C(=O)c1cc(C(Br)Br)cc(OC)c1C2=O has a reported IC50 of 58

O=C1c2cccc(O)c2C(=O)c2c(O)cc(CNCCO)cc21 has a reported IC50 of 15

COc1cccc2c1C(=O)c1c(OC)cc(CN(CCO)CCO)cc1C2=O has a reported IC50 of 14

COc1cccc2c1C(=O)c1c(OC)cc(C)cc1C2=O has a reported IC50 of 19

O=C1c2cccc(O)c2C(=O)c2c(O)cc(Cn3ccnc3)cc21 has a reported IC50 of 43

COc1cc(OC)c2c(c1)C(=O)c1cc(CN(CCO)CCO)cc(OC)c1C2=O has a reported IC50 of 17

COc1cc(OC)c2c(c1)C(=O)c1cc(CBr)cc(OC)c1C2=O has a reported IC50 of 12

O=C1c2cccc(O)c2C(=O)c2c(O)cc(CN3CCCCC3)cc21 has a reported IC50 of 63

CCNCc1cc(OC)c2c(c1)C(=O)c1cccc(OC)c1C2=O has a reported IC50 of 29
